Target: specific E3 ubiquitin ligase that recognises phosphorylated IκB
Non-standard residues stand in square brackets, D forms with d. No end group written: not given here. pS = N[C@@H](COP(=O)(O)O)C(=O)O
PARAMETER MEASURED: IC50 of inhibition of the pIκB conjugation reaction (µM)

CDDRHD[pS]GLD[pS]MKDEE [doubly phosphorylated IκBα peptide pp15]	5
CDDRHD[pS]GLD[pS]M [doubly phosphorylated IκBα peptide pp11]	5
CERLLDDRHD[pS]GLD[pS]MKDEE [doubly phosphorylated IκBα peptide pp19]	5
CKKERLLDDRHD[pS]GLD[pS]MKDEE [doubly phosphorylated IκBα peptide pp21]	5
